Overview of reported shrunken log2 fold change across a group of sequences:
- Tested on: Escherichia coli TOP10
- method: shrunken log2 fold change of peptide-encoding DNA abundance (4.5 h post-induction vs induction); higher = less antimicrobial activity (less host growth inhibition)
- conditionDescription: time post-induction: 4.5 h; library: site-saturation at positions 5, 18, 19, 20

Input "RRIRTRPPRLPRPRPRPSLVPRP" . Output shrunken log2 fold change: 0.0852

Input "RRIRVRPPRLPRPRPRPKRMPRP" . Output shrunken log2 fold change: 0.117

Input "RRIRYRPPRLPRPRPRPQRDPRP" . Output shrunken log2 fold change: -0.256

Input "RRIRVRPPRLPRPRPRPPQFPRP" . Output shrunken log2 fold change: 0.146

Input "RRIRTRPPRLPRPRPRPCCIPRP" . Output shrunken log2 fold change: -0.155

---

- Test system: Escherichia coli TOP10
- method: shrunken log2 fold change of peptide-encoding DNA abundance (4.5 h post-induction vs induction); higher = less antimicrobial activity (less host growth inhibition)
- conditionDescription: time post-induction: 4.5 h; library: site-saturation at positions 5, 18, 19, 20
readoutLabel: shrunken log2 fold change
Answer field: number only, no words.

Check out these entries, answers already filled in.
RRIRWRPPRLPRPRPRPKDEPRP    0.0784
RRIRQRPPRLPRPRPRPALYPRP    0.172
RRIRNRPPRLPRPRPRPKVWPRP    0.68

Input "RRIRPRPPRLPRPRPRPRRPPRP" . Output shrunken log2 fold change: 0.489

Input "RRIRDRPPRLPRPRPRPIDQPRP" . Output shrunken log2 fold change: -0.0222

Input "RRIRCRPPRLPRPRPRPHWLPRP" . Output shrunken log2 fold change: -0.311

Input "RRIRLRPPRLPRPRPRPQEYPRP" . Output shrunken log2 fold change: -0.846

Input "RRIRCRPPRLPRPRPRPIRIPRP" . Output shrunken log2 fold change: 0.0952

Input "RRIRNRPPRLPRPRPRPKPIPRP" . Output shrunken log2 fold change: 0.202

---

- Tested on: Escherichia coli TOP10
- method: shrunken log2 fold change of peptide-encoding DNA abundance (4.5 h post-induction vs induction); higher = less antimicrobial activity (less host growth inhibition)
- conditionDescription: time post-induction: 4.5 h; library: site-saturation at positions 5, 18, 19, 20
Overview of reported shrunken log2 fold change across a group of sequences:
Answer field: number only, no words.

Input "RRIRARPPRLPRPRPRPCCVPRP" . Output shrunken log2 fold change: 0.559

Input "RRIRVRPPRLPRPRPRPIVDPRP" . Output shrunken log2 fold change: -0.142

Input "RRIRQRPPRLPRPRPRPWFAPRP" . Output shrunken log2 fold change: -0.16

Input "RRIRVRPPRLPRPRPRPRVDPRP" . Output shrunken log2 fold change: 0.455

---

- Tested on: Escherichia coli TOP10;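 further: peptides expressed intracellularly from a pBAD plasmid library in pooled LB shake-flask culture, induced with 0.3% L-arabinose, DNA abundance read by NGS, three biological replicates, DESeq2 with apeglm shrinkage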
- method: shrunken log2 fold change of peptide-encoding DNA abundance (4.5 h post-induction vs induction); higher = less antimicrobial activity (less host growth inhibition)
- conditionDescription: time post-induction: 4.5 h; library: site-saturation at positions 5, 18, 19, 20
Overview of reported shrunken log2 fold change across a group of sequences:
Answer field: number only, no words.

Check out these entries, answers already filled in.
RRIRCRPPRLPRPRPRPCNHPRP    -0.227
RRIRQRPPRLPRPRPRPQFDPRP    -0.178

Input "RRIRTRPPRLPRPRPRPEYTPRP" . Output shrunken log2 fold change: -0.052

Input "RRIRNRPPRLPRPRPRPLTTPRP" . Output shrunken log2 fold change: -0.07

Input "RRIRWRPPRLPRPRPRPPMMPRP" . Output shrunken log2 fold change: 0.203
